Tested Target: CDK2 (Homo sapiens, UniProt P24941)
Construct: High-Throughput Measurement of Cellular Endogenous CDK2; endogenous in cells; host or cells: OVCAR3
Assay Details: Inhibition of CDK2: phospho-Rb (S807/811) HTRF measurement in OVCAR3 cells, 24 h
Type: cell-based
Condition Summary: 24 h compound treatment, read-out: pRB_OVCAR3_24h
pIC50: −log10 of the molar value.
Attribute Measured: pIC50

# Compound, Obs Value
data = [
    ("Cn1nc(N2CCC(=O)NC2=O)c2ccc(C3CCN(Cc4cccc(S(=O)(=O)N5CC[C@H](Nc6ncc(Cl)cn6)[C@H](F)C5)c4)CC3)cc21", "6.30 to 7.00"),
    ("Cn1c(=O)n(C2CCC(=O)NC2=O)c2ccc(F)c(C3CCN(CC4CCN(c5cc(S(=O)(=O)N6CCC(Nc7ncc(Cl)cn7)CC6)ccc5C#N)CC4)CC3)c21 (stereo not shown)", "7.00 to 9.00"),
    ("Cn1nc(N2CCC(=O)NC2=O)c2ccc(C3CCN(CC4(O)CCN(c5cccc(S(=O)(=O)N6CCC(Nc7ncc(Cl)cn7)CC6)c5)CC4)CC3)cc21", "7.00 to 9.00"),
    ("Cn1nc(N2CCC(=O)NC2=O)c2ccc(C3CCN(Cc4ccc(S(=O)(=O)N5CCC(Nc6ncc(OC(F)F)cn6)CC5)cc4)CC3)cc21", "7.00 to 9.00"),
    ("Cn1nc(N2CCC(=O)NC2=O)c2ccc(C3CCN(CC4CCN(S(=O)(=O)c5ccc(Nc6ncc(C(F)(F)F)cn6)c(F)c5)CC4)CC3)cc21", "5.60 to 6.30"),
    ("Cn1nc(N2CCC(=O)NC2=O)c2ccc(C3CCN(CC4CCN(c5cccc(S(=O)(=O)N6CCC(Nc7ncc(Cl)cn7)CC6)c5)C(=O)C4)CC3)cc21 (stereo not shown)", "7.00 to 9.00"),
    ("Cn1c(=O)n(C2CCC(=O)NC2=O)c2cccc(N3CCN(CC4CCN(c5cc(S(=O)(=O)N6CCC(Nc7ncc(C(F)(F)F)cn7)CC6)ccc5C#N)CC4)CC3)c21 (stereo not shown)", "7.00 to 9.00"),
    ("Cn1nc(N2CCC(=O)NC2=O)c2ccc(C3CCN(Cc4ccnc(S(=O)(=O)N5CCC(Nc6ncc(C(F)(F)F)cn6)CC5)c4)CC3)cc21", "5.60 to 6.30"),
    ("O=C1CCC(N2Cc3cc(N4CCN(CC5CCN(c6cccc(S(=O)(=O)N7CCC(Nc8ncc(C(F)(F)F)cn8)CC7)c6)CC5)CC4)c(F)cc3C2=O)C(=O)N1 (stereo not shown)", "6.30 to 7.00"),
    ("Cn1c(=O)n(C2CCC(=O)NC2=O)c2cccc(C3CCN(CC4CCN(c5cc(F)cc(S(=O)(=O)N6CCC(Nc7ncc(OC(F)F)cn7)CC6)c5)CC4)CC3)c21 (stereo not shown)", "7.00 to 9.00"),
    ("Cn1nc(N2CCC(=O)NC2=O)c2ccc(C3CCN(Cc4cccc(S(=O)(=O)N5CCC(Nc6ncc(F)cn6)CC5)c4)CC3)cc21", "< 5.60"),
    ("O=C1CCC(N2C(=O)c3cc(F)c(N4CCN(Cc5cccc(S(=O)(=O)N6CCC(Nc7ncc(Cl)cn7)CC6)c5)CC4)cc3C2=O)C(=O)N1 (stereo not shown)", "5.60 to 6.30"),
    ("O=C1CCC(N2Cc3cc(C4CCN(CC5CCN(c6cccc(S(=O)(=O)N7CCC(Nc8ncc(C(F)(F)F)cn8)CC7)c6)CC5)CC4)c(F)cc3C2=O)C(=O)N1 (stereo not shown)", "7.00 to 9.00"),
    ("Cn1nc(N2CCC(=O)NC2=O)c2ccc(C3CCN(CC4CCN(c5ccc(S(=O)(=O)N6CCC(Nc7ncc(Cl)cn7)CC6)cc5)CC4)CC3)cc21", "5.60 to 6.30"),
    ("Cn1nc(N2CCC(=O)NC2=O)c2ccc(C3CCN(CC4CCN(c5cc(S(=O)(=O)N6CCC(Nc7ncc(Cl)cn7)CC6)ccc5C#N)CC4)CC3)cc21", "7.00 to 9.00"),
    ("Cn1nc(N2CCC(=O)NC2=O)c2ccc(N3CCN(Cc4cccc(S(=O)(=O)N5CCC(Nc6ncc(C(F)(F)F)cn6)CC5)c4)CC3)cc21", "6.30 to 7.00"),
    ("O=C1CCC(n2c(=O)oc3c(C4CCN(CC5CCN(c6cccc(S(=O)(=O)N7CCC(Nc8ncc(C(F)(F)F)cn8)CC7)c6)CC5)CC4)cccc32)C(=O)N1 (stereo not shown)", "7.00 to 9.00"),
    ("O=C1CCC(N2C(=O)c3cc(F)c(N4CCN(Cc5cccc(S(=O)(=O)N6CCC(Nc7ncc(C(F)(F)F)cn7)CC6)c5)CC4)cc3C2=O)C(=O)N1 (stereo not shown)", "5.60 to 6.30"),
    ("N#Cc1ccc(S(=O)(=O)N2CCC(Nc3ncc(Cl)cn3)CC2)cc1N1CCC(CN2CCC(c3cccc4c3oc(=O)n4C3CCC(=O)NC3=O)CC2)CC1 (stereo not shown)", "7.00 to 9.00"),
    ("Cn1nc(N2CCC(=O)NC2=O)c2ccc(C3CCN(CC4CCN(c5cccc(S(=O)(=O)N6[C@@H]7CC[C@H]6CC(Nc6ncc(Cl)cn6)C7)c5)CC4)CC3)cc21 (stereo partly shown)", "5.60 to 6.30"),
    ("Cn1nc(N2CCC(=O)NC2=O)c2ccc(C3CCN(CC#Cc4cccc(S(=O)(=O)N5CCC(Nc6ncc(Cl)cn6)CC5)c4)CC3)cc21", "6.30 to 7.00"),
    ("Cn1nc(N2CCC(=O)NC2=O)c2ccc(N3CCN(CC4CCN(c5cccc(S(=O)(=O)N6CCC(Nc7ncc(Cl)cn7)CC6)c5)CC4)C4CC43)cc21 (stereo not shown)", "5.60 to 6.30"),
]

---

Tested Target: CDK2 (Homo sapiens, UniProt P24941)
Construct: High-Throughput Measurement of Cellular Endogenous CDK2; endogenous in cells
Assay Details: Inhibition of CDK2: phospho-Rb (S807/811) HTRF measurement in OVCAR3 cells, 24 h
Condition Summary: 24 h compound treatment, read-out: pRB_OVCAR3_24h
pIC50: −log10 of the molar value. Structures can show the parent of a compound that is named as a salt.

# Compound, pIC50
rows = [
    ("O=C1CCC(c2csc3cc(C4CCN(CC5CCN(c6cccc(S(=O)(=O)N7CCC(Nc8ncc(C(F)(F)F)cn8)CC7)c6)CC5)CC4)ccc23)C(=O)N1 (stereo not shown) [Example 250]", "7.00 to 9.00"),
    ("Cn1nc(N2CCC(=O)NC2=O)c2ccc(C3CCN(Cc4cccc(S(=O)(=O)N5CC6(CC(Nc7ncc(C(F)(F)F)cn7)C6)C5)c4)CC3)cc21 [Example 146]", "< 5.60"),
    ("O=C1CCC(NC(=O)c2ccc(C3CCN(CC4CCN(c5cccc(S(=O)(=O)N6CCC(Nc7ncc(C(F)(F)F)cn7)CC6)c5)CC4)CC3)cn2)C(=O)N1 (stereo not shown) [Example 225]", "6.30 to 7.00"),
    ("Cn1nc(N2CCC(=O)NC2=O)c2ccc(C3CCN(CC4CCN(c5cc(C(F)(F)F)cc(S(=O)(=O)N6CCC(Nc7ncc(Cl)cn7)CC6)c5)CC4)CC3)cc21 [Example 170]", "5.60 to 6.30"),
    ("Cn1nc(N2CCC(=O)NC2=O)c2ccc(N3CCC(NCc4cccc(S(=O)(=O)N5CCC(Nc6ncc(Cl)cn6)CC5)c4)CC3)cc21 [Example 84]", "< 5.60"),
    ("Cn1nc(N2CCC(=O)NC2=O)c2ccc(C3CCN(CCOc4cccc(S(=O)(=O)N5CCC(Nc6ncc(Cl)cn6)CC5)c4)CC3)cc21 [Example 124]", "7.00 to 9.00"),
    ("Cn1nc(N2CCC(=O)NC2=O)c2ccc(C3CCN(CC4CCN(c5cc(S(=O)(=O)N6CCC(Nc7ncc(Cl)cn7)CC6)ccc5F)CC4)CC3)cc21 [Example 140]", "7.00 to 9.00"),
    ("Cn1nc(N2CCC(=O)NC2=O)c2ccc(C3CCN(CC4CCN(c5cccc(S(=O)(=O)N6CC[C@H](Nc7ncc(C(F)(F)F)cn7)[C@H](F)C6)c5)CC4)CC3)cc21 (racemic) [Example 223]", "7.00 to 9.00"),
    ("Cn1nc(N2CCC(=O)NC2=O)c2ccc(C3CCN(C[C@H]4CCCN4c4cc(S(=O)(=O)N5CCC(Nc6ncc(OC(F)F)cn6)CC5)ccc4C#N)CC3)cc21 [Example 255]", "6.30 to 7.00"),
    ("Cn1nc(N2CCC(=O)NC2=O)c2ccc(C3CCN(C[C@@H]4CCN(c5cccc(S(=O)(=O)N6CCC(Nc7ncc(Cl)cn7)CC6)c5)C4)CC3)cc21 [Example 135]", "6.30 to 7.00"),
    ("O=C1CCC(N2Cc3cc(N4CCC(N5CC(Oc6cccc(S(=O)(=O)N7CCC(Nc8ncc(C(F)(F)F)cn8)CC7)c6)C5)CC4)ccc3C2=O)C(=O)N1 (stereo not shown) [Example 45]", "6.30 to 7.00"),
    ("Cn1nc(N2CCC(=O)NC2=O)c2ccc(N3CCN(Cc4cccc(S(=O)(=O)[C@H]5CC[C@H](Nc6ncc(Cl)cn6)CC5)c4)CC3)cc21 [Example 67]", "< 5.60"),
    ("CN(CCCN1CCC(c2cccc3c2n(C)c(=O)n3C2CCC(=O)NC2=O)CC1)c1cccc(S(=O)(=O)N2CCC(Nc3ncc(C(F)(F)F)cn3)CC2)c1 (stereo not shown) [Example 190]", "7.00 to 9.00"),
    ("Cn1nc(N2CCC(=O)NC2=O)c2ccc(C3CCN(CC4(O)CCN(c5cc(S(=O)(=O)N6CCC(Nc7ncc(Cl)cn7)CC6)ccc5C#N)CC4)CC3)cc21 [Example 214]", "7.00 to 9.00"),
    ("Cn1nc(N2CCC(=O)NC2=O)c2ccc(C3CCN(CC4CCN(c5cccc(S(=O)(=O)N6CCC(Nc7ncc(CC(F)(F)F)cn7)CC6)c5)CC4)CC3)cc21 [Example 243]", "5.60 to 6.30"),
    ("COc1cnc(NC2CCN(S(=O)(=O)c3cccc(CN4CCC(c5ccc6c(N7CCC(=O)NC7=O)nn(C)c6c5)CC4)c3)CC2)nc1 [Example 57]", "5.60 to 6.30"),
    ("Cn1nc(N2CCC(=O)NC2=O)c2ccc(C3CCN(Cc4ccc(C#Cc5cccc(S(=O)(=O)N6CCC(Nc7ncc(C(F)(F)F)cn7)CC6)c5)cc4)CC3)cc21 [Example 232]", "6.30 to 7.00"),
    ("Cn1nc(N2CCC(=O)NC2=O)c2ccc(C3CCN(CC4CCC(c5cccc(S(=O)(=O)N6CCC(Nc7ncc(Cl)cn7)CC6)c5)CC4)CC3)cc21 (stereo not shown) [Example 156, trifluoroacetate]", "6.30 to 7.00"),
    ("Cn1c(=O)n(C2CCC(=O)NC2=O)c2cccc(C3CCN(Cc4cccc(S(=O)(=O)N5CCC(Nc6ncc(OC(F)F)cn6)CC5)c4)CC3)c21 (stereo not shown) [Example 128]", "7.00 to 9.00"),
]

The reported numbers originate from patent US20260167623A1.
